Reference for the values: patent US9688624B2

Test: Capsule formulation pharmacokinetics in male Beagle dogs
Format: in vivo
Settings: male, Beagle, in vivo, po; dog, fasted, Capsule, 5.6 mg/kg
Where a name gives a salt, the structure may show the parent alone.
readoutName: AUC (ng·h/mL)

COc1ccc(CC(=O)O)cc1Oc1ccc(NC(=O)C(C)(C)C)cc1CSC(C)(C)C [Compound 2, sodium salt]    14300

---

Test: Capsule formulation pharmacokinetics in male Beagle dogs
Format: in vivo
Details: male, Beagle, in vivo, po; dog, fasted, EC-Capsule (L100-55), 5 mg/kg
Structures can show the parent of a compound that is named as a salt.
readoutName: AUC (ng·h/mL)

COc1ccc(CC(=O)O)cc1Oc1ccc(NC(=O)C(C)(C)C)cc1CSC(C)(C)C [Compound 2, sodium salt]    20900
